- System: Ishikawa
- EXPERIMENTAL DETAILS: Antiproliferative activity against human Ishikawa cells after 48 hrs by MTT assay
- Assay type: functional, cell-based
pIC50: −log10 of the molar value.
Known pIC50 of a selection of compounds
MEASURE NAME: pIC50

{"STRUCTURE STRING": "COCOc1ccc2c(c1)CC[C@@H]1[C@@H]2[C@H](OC(=O)c2ccc(NC(=O)CN3CCCC3)cc2)C[C@]2(C)[C@@H](OCOC)CC[C@@H]12", "MEASUREMENT": 5.14}
{"STRUCTURE STRING": "COCOc1ccc2c(c1)CC[C@@H]1[C@@H]2[C@H](OC(=O)c2ccc(NC(=O)CN3CCN(C)CC3)cc2)C[C@]2(C)[C@@H](OCOC)CC[C@@H]12", "MEASUREMENT": 5.11}
{"STRUCTURE STRING": "COc1ccc2c(c1)CC[C@@H]1[C@@H]2[C@H](OC(=O)c2ccc(NC(=O)CN(C)C)cc2)C[C@]2(C)[C@@H](OC)CC[C@@H]12", "MEASUREMENT": 4.81}
{"STRUCTURE STRING": "COc1ccc2c(c1)CC[C@@H]1[C@@H]2[C@H](OC(=O)c2ccc(NC(=O)CN3CCCC3)cc2)C[C@]2(C)[C@@H](OC)CC[C@@H]12", "MEASUREMENT": 5.32}
{"STRUCTURE STRING": "CN(C)CC(=O)Nc1ccc(C(=O)O[C@@H]2C[C@]3(C)[C@@H](O)CC[C@H]3[C@@H]3CCc4cc(O)ccc4[C@H]32)cc1", "MEASUREMENT": 4.43}
{"STRUCTURE STRING": "COc1cc2c(cc1O)CC[C@@H]1[C@@H]2CC[C@]2(C)[C@@H](O)CC[C@@H]12", "MEASUREMENT": 5.05}
{"STRUCTURE STRING": "COc1cc2c(cc1OC)[C@@H]1[C@@H](CC2)[C@@H]2CC[C@H](OC)[C@@]2(C)C[C@H]1OC(=O)c1ccc(NC(=O)CN2CCCC2)cc1", "MEASUREMENT": 5.26}

* * *

- Tested on: HepG2
- EXPERIMENTAL DETAILS: Antiproliferative activity against human HepG2 cells after 48 hrs by MTT assay
- Format: functional, cell-based
- MEASUREMENT CONTEXT: HepG2, 48 h
Label label 1 when IC50 is strictly below 8 µM; at or above that, label label 0.

{"MOLECULE": "COCOc1ccc2c(c1)CC[C@@H]1[C@@H]2[C@H](OC(=O)c2ccc(NC(=O)CN3CCN(C)CC3)cc2)C[C@]2(C)[C@@H](OCOC)CC[C@@H]12", "ASSIGNED CATEGORY": "label 1"}
{"MOLECULE": "C[C@]12C[C@@H](OC(=O)c3ccc(NC(=O)CN4CCCC4)cc3)[C@@H]3c4ccc(O)cc4CC[C@H]3[C@@H]1CC[C@@H]2O", "ASSIGNED CATEGORY": "label 0"}
{"MOLECULE": "COCOc1ccc2c(c1)CC[C@@H]1[C@@H]2[C@H](OC(=O)c2ccc(NC(=O)CN(C)C)cc2)C[C@]2(C)[C@@H](OCOC)CC[C@@H]12", "ASSIGNED CATEGORY": "label 0"}
{"MOLECULE": "CN1CCN(CC(=O)Nc2ccc(C(=O)O[C@@H]3C[C@]4(C)[C@@H](O)CC[C@H]4[C@@H]4CCc5cc(O)ccc5[C@H]43)cc2)CC1", "ASSIGNED CATEGORY": "label 0"}
{"MOLECULE": "CN(C)CC(=O)Nc1ccc(C(=O)O[C@@H]2C[C@]3(C)[C@@H](O)CC[C@H]3[C@@H]3CCc4cc(O)ccc4[C@H]32)cc1", "ASSIGNED CATEGORY": "label 0"}
{"MOLECULE": "COc1ccc2c(c1)CC[C@@H]1[C@@H]2[C@H](OC(=O)c2ccc(NC(=O)CN3CCCC3)cc2)C[C@]2(C)[C@@H](OC)CC[C@@H]12", "ASSIGNED CATEGORY": "label 0"}
{"MOLECULE": "COc1ccc2c(c1)CC[C@@H]1[C@@H]2[C@H](OC(=O)c2ccc(NC(=O)CN(C)C)cc2)C[C@]2(C)[C@@H](OC)CC[C@@H]12", "ASSIGNED CATEGORY": "label 1"}
{"MOLECULE": "COc1cc2c(cc1OC)[C@@H]1[C@@H](CC2)[C@@H]2CC[C@H](OC)[C@@]2(C)C[C@H]1OC(=O)c1ccc(NC(=O)CN2CCN(C)CC2)cc1", "ASSIGNED CATEGORY": "label 1"}
{"MOLECULE": "COc1cc2c(cc1O)CC[C@@H]1[C@@H]2CC[C@]2(C)[C@@H](O)CC[C@@H]12 [2-METHOXYESTRADIOL]", "ASSIGNED CATEGORY": "label 0"}
{"MOLECULE": "COc1cc2c(cc1OC)[C@@H]1[C@@H](CC2)[C@@H]2CC[C@H](OC)[C@@]2(C)C[C@H]1OC(=O)c1ccc(NC(=O)CN(C)C)cc1", "ASSIGNED CATEGORY": "label 1"}
{"MOLECULE": "COc1cc2c(cc1OC)[C@@H]1[C@@H](CC2)[C@@H]2CC[C@H](OC)[C@@]2(C)C[C@H]1OC(=O)c1ccc(NC(=O)CN2CCCC2)cc1", "ASSIGNED CATEGORY": "label 1"}
{"MOLECULE": "COCOc1ccc2c(c1)CC[C@@H]1[C@@H]2[C@H](OC(=O)c2ccc(NC(=O)CN3CCCC3)cc2)C[C@]2(C)[C@@H](OCOC)CC[C@@H]12", "ASSIGNED CATEGORY": "label 0"}

* * *

Known pIC50 of a selection of compounds
- System: HUVEC
- EXPERIMENTAL DETAILS: Antiproliferative activity against HUVEC after 48 hrs by MTT assay
- Assay type: functional, cell-based
- MEASUREMENT CONTEXT: Homo sapiens
pIC50: −log10 of the molar value.

{"STRUCTURE STRING": "COc1cc2c(cc1O)CC[C@@H]1[C@@H]2CC[C@]2(C)[C@@H](O)CC[C@@H]12", "pIC50": 4.85}
{"STRUCTURE STRING": "CN1CCN(CC(=O)Nc2ccc(C(=O)O[C@@H]3C[C@]4(C)[C@@H](O)CC[C@H]4[C@@H]4CCc5cc(O)ccc5[C@H]43)cc2)CC1", "pIC50": 4.43}
{"STRUCTURE STRING": "COc1cc2c(cc1OC)[C@@H]1[C@@H](CC2)[C@@H]2CC[C@H](OC)[C@@]2(C)C[C@H]1OC(=O)c1ccc(NC(=O)CN(C)C)cc1", "pIC50": 5.23}
{"STRUCTURE STRING": "COc1ccc2c(c1)CC[C@@H]1[C@@H]2[C@H](OC(=O)c2ccc(NC(=O)CN(C)C)cc2)C[C@]2(C)[C@@H](OC)CC[C@@H]12", "pIC50": 5.16}

* * *

Known IC50 of a selection of compounds
- System: HUVEC
- EXPERIMENTAL DETAILS: Antiproliferative activity against HUVEC after 48 hrs by MTT assay
- Format: functional, cell-based
- MEASUREMENT CONTEXT: Homo sapiens

{"STRUCTURE STRING": "COCOc1ccc2c(c1)CC[C@@H]1[C@@H]2[C@H](OC(=O)c2ccc(NC(=O)CN3CCCC3)cc2)C[C@]2(C)[C@@H](OCOC)CC[C@@H]12", "IC50": "9.28 µM"}
{"STRUCTURE STRING": "COc1cc2c(cc1OC)[C@@H]1[C@@H](CC2)[C@@H]2CC[C@H](OC)[C@@]2(C)C[C@H]1OC(=O)c1ccc(NC(=O)CN2CCN(C)CC2)cc1", "IC50": "4.85 µM"}
{"STRUCTURE STRING": "COCOc1ccc2c(c1)CC[C@@H]1[C@@H]2[C@H](OC(=O)c2ccc(NC(=O)CN(C)C)cc2)C[C@]2(C)[C@@H](OCOC)CC[C@@H]12", "IC50": "17.7 µM"}
